- TARGET_DESC: T1, TRKA protein with a histidine tag (human, UniProt P04629 33-423, limits assumed)
- T1 construct: it is put last here only for order; also called TRKA (50 µg/ml, 75 kDa, provided by HEC Labs); not shown: histidine tag
- METHOD_SUMMARY: BLI (Fortebio Octet RED96), His-tagged TRKA on Ni-NTA sensor, antibody 80-2.93 nM
- Procedure: They were added to each well of the sample plate. […] The KD value is the equilibrium dissociation constant between the antibody and its antigen, and the KD value is inversely proportional to the affinity. The KD value is related to the antibody concentration (the amount of antibody required for a particular experiment). The lower the KD value (the lower the concentration), the higher the affinity of the antibody. […]
pKd: −log10 of the molar value.
Tag: 1 (yes) if measured pKd is not below 10, 0 (no) if it is.

{"BINDER": "2A5 chimeric antibody (antibody, human IgG4 S228P, kappa, F234A L235A, V domains shown, expressed in CHO cells) VH: EVQLQQSGPELVKPGASMKISCKASGYSFTGYTMNWVKQSHGKNLEWIGLINPYNGGTNYNQKFKGKATLTVDKSSSTAYMELLSLTSEDSAVYYCAFSYYGSRGFYFDYWGQGTTLTVSS VL: QIVLTQSPALMSASPGEKVTMTCSATSSVSYIYWYQQKPRSSPKPWIYLTSNLASGVPARFSGSGSGTSYSLTISSMEAEDAATYYCQQWSSNPPTFGGGTKLEIKR", "GROUP_LABEL": "1 (yes)"}
{"BINDER": "1B9 chimeric antibody (antibody, human IgG4 S228P, kappa, F234A L235A, V domains shown, expressed in CHO cells) VH: QVHLQQSGAELMKPGASVKISCKATGYTFNIYWIDWVKQRPGHGLEWIGEILPGSGNTHYNENFKGKATMTADTSSNTAYMQLTSLTSEDSAVYYCARTDGRGYFDYWGQGTTLTVSS VL: DIVLTQSPASLVVSLGQRATISCRTSKSVSSSAYSYMHWYQQKPGQPPKVLIYLASNLESGVPARFSGSGSGTDFTLNIHPVEEEDAATYYCQHSRELPFTFGSGTKLEIKR", "GROUP_LABEL": "0 (no)"}
{"BINDER": "4H4 chimeric antibody (antibody, human IgG4 S228P, kappa, F234A L235A, V domains shown, expressed in CHO cells) VH: EVQLQQSGPELVKPGASMKISCKASGYSFTGYTMNWVKQSHGKNLEWIGLINPYNGGTRYNQKFKGKATLTVDKSSSTAYMELLSLTSEDSAVYYCASSSYRNDGNWYFDVWGAGTTVTVSS VL: DIVMTQSPAIMSASPGEKVTMTCSASSSVSYMHWYQQKSGTSPKRWIYDTSKLASGVPARFSGSGSGTSYSLTISSMETEDAATYYCQQWSSNPPTFGGGTKLELKR", "GROUP_LABEL": "0 (no)"}
